# experimentalSystem: human β3 adrenergic receptor (Homo sapiens)
# Construct: Full length β3 AR clones (402 amino acids) containing the last 6 amino acids of hβ3-AR are prepared; expressed in transfected cells; host or cells: CHO (Chinese hamster ovary) cells
# testDetails: cAMP (SPA) response in CHO cells transfected with human β3 adrenergic receptor
# Format: cell-based
# Set-up: key: fraction of maximal isoproterenol (10^-5 M) response
# statedConditions: maximal response relative to maximal response of isoproterenol at 10^-5 M
// values below are reported IA(β3)
Number only, please.

Past entries and their recorded results:
compound	experimentalSystem	IA(β3)
COC(=O)[C@H](CC(C)C)NC(=O)c1ccc(N2CCC(NCC(O)c3ccc(O)c(NS(C)(=O)=O)c3)CC2)cc1 (stereo partly shown) [Example 209]	human β3 adrenergic receptor (Homo sapiens)	1
COC(=O)[C@H](Cc1ccccc1)NC(=O)c1ccc(N2CCC(NC[C@H](O)c3ccc(O)c(NS(C)(=O)=O)c3)CC2)cc1 [Example 204]	human β3 adrenergic receptor (Homo sapiens)	1.2
O=C1NC(=O)C(Cc2ccc(N3CCC(NC[C@H](O)COc4ccc(O)c(NS(=O)(=O)c5ccccc5)c4)CC3)cc2)S1 (stereo partly shown) [Example 93]	human β3 adrenergic receptor (Homo sapiens)	1
COc1ccc(S(=O)(=O)Nc2ccc(N3CCC(NC[C@H](O)c4cccc(Cl)c4)CC3)cc2)cc1 [Example 260]	human β3 adrenergic receptor (Homo sapiens)	0.63
N#Cc1ccc(S(=O)(=O)Nc2ccc(N3CCC(NC[C@H](O)COc4cccc5[nH]c(=O)[nH]c45)CC3)cc2)cc1 [Example 284]	human β3 adrenergic receptor (Homo sapiens)	0.87
O=c1[nH]c2cccc(OC[C@@H](O)CNC3CCN(c4ccc(NS(=O)(=O)c5cc(Cl)cc(Cl)c5)cc4)CC3)c2[nH]1 [Example 333]	human β3 adrenergic receptor (Homo sapiens)	0.83

# evaluate next
Qu. Which value of IA(β3) has been reported for CC(=O)Nc1ccc(S(=O)(=O)Nc2ccccc2N2CCC(NCC(O)c3cccc(O)c3)CC2)cc1 (stereo not shown) [Example 264] in the records?
Ans. 0.37

###

# experimentalSystem: human β3 adrenergic receptor (Homo sapiens)
# Construct: Full length β3 AR clones (402 amino acids) containing the last 6 amino acids of hβ3-AR are prepared; expressed in transfected cells; host or cells: CHO (Chinese hamster ovary) cells
# testDetails: cAMP (SPA) response in CHO cells transfected with human β3 adrenergic receptor
# Format: cell-based
# Set-up: key: fraction of maximal isoproterenol (10^-5 M) response
# statedConditions: maximal response relative to maximal response of isoproterenol at 10^-5 M
Item-by-item account of IA(β3)
// no unit string in output, number only

compound	IA(β3)
CCCCCCCCS(=O)(=O)Nc1ccc(N2CCC(NC[C@H](O)COc3cccc4[nH]c(=O)[nH]c34)CC2)cc1 [Example 298]	0.78
N#Cc1ccc(S(=O)(=O)N(c2ccc(N3CCC(NC[C@H](O)COc4cccc5[nH]c(=O)[nH]c45)CC3)cc2)S(=O)(=O)c2ccc(C#N)cc2)cc1 [Example 285]	0.76
CCCCCCNC(=O)Nc1ccc(S(=O)(=O)Nc2ccc(N3CCC(NCC(O)c4ccc(C)nc4)CC3)cc2)cc1 (stereo not shown) [Example 271]	0.84
CS(=O)(=O)Nc1cc([C@@H](O)CNC2CCN(c3ccc(C(=O)O)cc3)CC2)ccc1O [Example 186]	1.1
O=C1NC(=O)C(=Cc2ccc(N3CCC(NC[C@H](O)COc4cccc5[nH]c(=O)[nH]c45)CC3)c(Br)c2)S1 [Example 68]	1

Qu. Quick one: IA(β3) for CCCC(=O)Nc1ccc(N2CCC(NC[C@H](O)COc3cccc4[nH]c(=O)[nH]c34)CC2)cc1 [Example 386] ?
Ans. 0.89

Qu. State the recorded IA(β3) for this entry: CS(=O)(=O)Nc1cc([C@@H](O)CNC2CCN(c3ccc(C(=O)NCC(=O)O)cc3)CC2)ccc1O [Example 197]
Ans. 0.94

###

measuredMetric: melting point

Recorded results for 6 compounds are shown here.
compound	melting point
CCOC(=O)C(=Cc1ccc(N2CCC(NCC(O)c3ccc(O)c(NS(C)(=O)=O)c3)CC2)cc1)C(=O)OCC (stereo not shown)	> 80 °C (dec.)
CS(=O)(=O)Nc1cc([C@@H](O)CNC2CCN(c3ccc(CCC(=O)O)cc3)CC2)ccc1O	130 to 133 °C
CS(=O)(=O)Nc1cc([C@@H](O)CNC2CCN(c3ccc(CC4SC(=O)NC4=O)cc3)CC2)ccc1Cl (stereo partly shown)	> 105 °C (dec.)
CCOC(=O)c1ccc(N2CCC(NC[C@H](O)COc3cccc4[nH]c(=O)[nH]c34)CC2)cc1	> 170 °C (dec.)
CS(=O)(=O)Nc1cc([C@@H](O)CNC2CCN(c3ccc(C(=O)NOCc4ccccc4)cc3)CC2)ccc1O	> 70 °C (dec.)
CS(=O)(=O)Nc1cc(C(O)CNC2CCN(c3ccc(CC4SC(=O)NC4=O)cc3)CC2)ccc1O (stereo not shown) [Example 78]	> 150 °C (dec.)

Now, please, on to the next compound.
Qu. What does the record list as melting point for `O=C(Nc1ccc(N2CCC(NC[C@H](O)COc3cccc4[nH]c(=O)[nH]c34)CC2)cc1)c1ccc2c(c1)OCO2` ?
Ans. 160 to 169 °C

###

# experimentalSystem: human β3 adrenergic receptor (Homo sapiens, UniProt P13945)
# Construct: Full length β3 AR clones (402 amino acids) containing the last 6 amino acids of hβ3-AR are prepared; expressed in transfected cells; host or cells: CHO (Chinese hamster ovary) cells
# Sequence (P13945 whole entry): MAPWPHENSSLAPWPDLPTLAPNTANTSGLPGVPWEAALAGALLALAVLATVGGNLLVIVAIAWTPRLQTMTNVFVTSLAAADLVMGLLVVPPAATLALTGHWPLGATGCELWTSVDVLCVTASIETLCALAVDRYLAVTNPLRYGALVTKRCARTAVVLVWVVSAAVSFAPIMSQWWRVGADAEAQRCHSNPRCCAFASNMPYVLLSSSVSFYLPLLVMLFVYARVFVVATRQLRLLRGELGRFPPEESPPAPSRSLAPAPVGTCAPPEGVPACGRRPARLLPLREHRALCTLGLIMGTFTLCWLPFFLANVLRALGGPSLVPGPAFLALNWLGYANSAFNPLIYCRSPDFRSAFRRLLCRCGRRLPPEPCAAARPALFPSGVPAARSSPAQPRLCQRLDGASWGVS
# testDetails: cAMP (SPA) response in CHO cells transfected with human β3 adrenergic receptor
# Assay type: cell-based
# Set-up: key: fraction of maximal isoproterenol (10^-5 M) response
# statedConditions: maximal response relative to maximal response of isoproterenol at 10^-5 M
measuredMetric: IA(β3)
Output spec: single numeric token, no unit.

Known IA(β3) results, listed for orientation:
molecule	measuredMetric	reading
COc1ccc(S(=O)(=O)Nc2ccc(N3CC(NC[C@H](O)COc4ccc(O)cc4)C3)cc2)cc1OC	IA(β3)	0.56
O=S(=O)(Nc1ccc(N2CCC(NC[C@H](O)COc3ccc(O)cc3)CC2)cc1)c1ccc(S(=O)(=O)c2ccc(C(F)(F)F)cn2)s1	IA(β3)	0.78
COc1ccc(OC)c(S(=O)(=O)Nc2ccc(N3CCC(NC[C@H](O)COc4cccc5[nH]c(=O)[nH]c45)CC3)cc2)c1	IA(β3)	0.91
COc1ccc(S(=O)(=O)Nc2ccc(N3CCC(NC[C@H](O)c4ccc(O)c(O)c4)CC3)cc2)cc1	IA(β3)	0.86
O=C1NC(=O)C(Cc2ccc(N3CCC(NC[C@@H](O)c4cccnc4)CC3)cc2)S1 (stereo partly shown)	IA(β3)	0.52
CS(=O)(=O)Nc1cc([C@@H](O)CNC2CCN(c3ccc(CCC(=O)O)cc3)CC2)ccc1O	IA(β3)	1.1

Qu. // IA(β3) lookup, key: `O=c1[nH]c2cccc(OC[C@@H](O)CNC3CCN(c4ccc(NS(=O)(=O)c5ccc(-n6nnn(CCCC7CCCC7)c6=O)cc5)cc4)CC3)c2[nH]1`
Ans. 0.58

###

# experimentalSystem: human β3 adrenergic receptor (Homo sapiens, UniProt P13945)
# Construct: Full length β3 AR clones (402 amino acids) containing the last 6 amino acids of hβ3-AR are prepared; expressed in transfected cells; host or cells: CHO (Chinese hamster ovary) cells
# testDetails: cAMP (SPA) response in CHO cells transfected with human β3 adrenergic receptor
# Format: cell-based
# Parameters: key: fraction of maximal isoproterenol (10^-5 M) response
# statedConditions: maximal response relative to maximal response of isoproterenol at 10^-5 M
measuredMetric: IA(β3)
Respond using a number only.

Known results for compounds:
compound	IA(β3)
CCOC(=O)c1ccc(N2CCC(NC[C@H](O)COc3cccc4[nH]c(=O)[nH]c34)CC2)cc1	0.85
CCOC(=O)C(=Cc1ccc(N2CCC(NC[C@H](O)c3ccc(O)c(NS(C)(=O)=O)c3)CC2)cc1)C(=O)O	1.3
CC(=O)Nc1ccc(S(=O)(=O)Nc2ccc(N3CCC(NCC(O)c4cc(C(N)=O)c5[nH]ccc5c4)CC3)cc2)cc1 (stereo not shown)	1.05
CCOC(=O)CCNC(=O)c1ccc(N2CCC(NC[C@H](O)c3ccc(O)c(NS(C)(=O)=O)c3)CC2)cc1	0.9
COc1ccc(C(=O)Nc2ccc(N3CCC(NCC(O)c4ccc(O)c(NS(C)(=O)=O)c4)CC3)cc2)cc1OC (stereo not shown)	1.12

Let us move to another entry and its IA(β3).
Qu. Requested read-out: IA(β3). Entry: `COc1ccc(Br)cc1S(=O)(=O)N(c1ccc(N2CCC(NC[C@H](O)COc3cccc4[nH]c(=O)[nH]c34)CC2)cc1)S(=O)(=O)c1cc(Br)ccc1OC`
Ans. 0.72

###

Below, each entry is listed with its recorded melting point.
Structures can show the parent of a compound that is named as a salt.

Qu. Given CC(C)[C@H](NC(=O)c1ccc(N2CCC(NC[C@H](O)c3ccc(O)c(NS(C)(=O)=O)c3)CC2)cc1)C(=O)O (as salt: sodium) , state its recorded melting point.
Ans. > 135 °C (dec.)

Qu. Name the recorded melting point for `CS(=O)(=O)Nc1cc([C@@H](O)CNC2CCN(c3ccc(/C=C/C(=O)O)cc3)CC2)ccc1O` .
Ans. 220 °C
